Quick reference for human TRPV1 H^+ (max % remain) among some molecules
# system: human TRPV1 (Homo sapiens (Human), UniProt Q8NER1)
# Sequence (Q8NER1 whole entry): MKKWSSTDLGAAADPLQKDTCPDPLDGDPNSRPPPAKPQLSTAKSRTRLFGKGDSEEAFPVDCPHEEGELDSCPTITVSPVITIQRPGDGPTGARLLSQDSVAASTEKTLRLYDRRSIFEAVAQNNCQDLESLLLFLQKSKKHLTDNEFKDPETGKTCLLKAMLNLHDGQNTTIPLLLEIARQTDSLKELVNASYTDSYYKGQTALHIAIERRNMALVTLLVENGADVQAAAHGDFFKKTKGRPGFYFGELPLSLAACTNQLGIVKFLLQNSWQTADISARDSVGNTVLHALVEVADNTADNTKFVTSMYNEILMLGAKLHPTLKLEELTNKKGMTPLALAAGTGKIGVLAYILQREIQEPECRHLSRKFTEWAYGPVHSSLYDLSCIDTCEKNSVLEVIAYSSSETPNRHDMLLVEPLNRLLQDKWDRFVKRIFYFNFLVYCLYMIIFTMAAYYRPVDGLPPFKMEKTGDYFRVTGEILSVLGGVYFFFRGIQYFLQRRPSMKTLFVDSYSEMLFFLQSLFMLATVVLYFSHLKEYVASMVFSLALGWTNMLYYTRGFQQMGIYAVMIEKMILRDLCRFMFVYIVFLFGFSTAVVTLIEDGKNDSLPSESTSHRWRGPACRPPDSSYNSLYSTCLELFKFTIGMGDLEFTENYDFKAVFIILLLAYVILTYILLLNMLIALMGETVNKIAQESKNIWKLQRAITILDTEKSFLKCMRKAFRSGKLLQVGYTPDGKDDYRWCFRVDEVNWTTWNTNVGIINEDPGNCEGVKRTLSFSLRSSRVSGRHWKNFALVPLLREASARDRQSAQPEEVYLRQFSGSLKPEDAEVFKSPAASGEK
# assay-remarks: Acid Activation Assay (pH 5.0, intracellular Ca2+, FLIPR)
# Format: cell-based
# assay-setup: percentage of the maximal pH 5.0-induced response remaining; recombinant HEK293 hTRPV1 cells; maximum concentration tested 37.5 μM

molecule: C[C@]1(C(F)(F)F)C[C@@H](NC(=O)Nc2ccc3c(c2)NC(=O)CC3)c2ccccc2O1 [Example 34]
system: human TRPV1 (Homo sapiens (Human), UniProt Q8NER1)
human TRPV1 H^+ (max % remain), %: 34
//
molecule: O=C1COc2ccc(NC(=O)N[C@@H]3CCOc4ccc(F)cc43)cc2N1 [Example 118]
system: human TRPV1 (Homo sapiens (Human), UniProt Q8NER1)
human TRPV1 H^+ (max % remain), %: 101
//
molecule: CN1C(=O)CCc2ccc(NC(=O)N[C@@H]3CC4(CCC4)Oc4ccc(F)cc43)cc21 [Example 269]
system: human TRPV1 (Homo sapiens (Human), UniProt Q8NER1)
human TRPV1 H^+ (max % remain), %: 70

----------
# system: human TRPV1 (Homo sapiens (Human), UniProt Q8NER1)
# assay-remarks: Capsaicin Activation Assay (intracellular Ca2+, FLIPR)
# assay-setup: recombinant HEK293 cells expressing hTRPV1, 50 nM capsaicin
pIC50: −log10 of the molar value.
Quick reference for pIC50 among some compounds

compound: C[C@@]1(CF)C[C@@H](NC(=O)Nc2ccc3c(c2)NC(=O)CO3)c2ccc(C(F)(F)F)cc2O1 [Example 127]
pIC50: 7.17
--
compound: O=C1CCc2ccc(NC(=O)N[C@H]3CCOc4cc(OC(F)(F)F)ccc43)cc2N1 [Example 234]
pIC50: 7.05
--
compound: CN1Cc2ccc(NC(=O)N[C@@H]3CCc4cc(C(F)(F)F)ccc43)cc2NC1=O [Example 174]
pIC50: 6.89

----------
# system: human TRPV1 (Homo sapiens (Human), UniProt Q8NER1)
# assay-remarks: Capsaicin Activation Assay (intracellular Ca2+, FLIPR)
# assay-setup: recombinant HEK293 cells expressing hTRPV1, 50 nM capsaicin
pIC50: −log10 of the molar value.
Give YES when the value for pIC50 is at least 7. Give NO when it is less.

compound: CN1C(=O)CCc2ccc(NC(=O)N[C@@H]3CCc4cc(C(F)(F)F)ccc43)cc21 [Example 36]
class-name: YES

compound: C[C@@]1(C(F)F)C[C@@H](NC(=O)Nc2ccc3c(c2)NC(=O)CO3)c2ccccc2O1 [Example 130]
class-name: NO

compound: O=C1COc2ccc(NC(=O)N[C@@H]3CCc4cc(Cl)ccc43)cc2N1 [Example 119]
class-name: NO

compound: O=C1COc2ccc(NC(=O)N[C@@H]3CC4(CCCC4)Oc4ccccc43)cc2N1 [Example 124]
class-name: NO

compound: CC1(C)C[C@@H](NC(=O)Nc2ccc3c(c2)NC(=O)CO3)c2cccc(F)c2O1 [Example 100]
class-name: NO

----------
# system: human TRPV1 (Homo sapiens (Human), UniProt Q8NER1)
# assay-remarks: Capsaicin Activation Assay (intracellular Ca2+, FLIPR)
# assay-setup: recombinant HEK293 cells expressing hTRPV1, 50 nM capsaicin
pIC50: −log10 of the molar value.
Give fulfilled when the value for pIC50 is at least 6. Give not fulfilled when it is less.

compound: CC1(C)C[C@@H](NC(=O)Nc2ccc3c(c2)NC(=O)CC3)c2cc(F)ccc2O1 [Example 232]
class-name: fulfilled
//
compound: CCC1(CC)C[C@@H](NC(=O)Nc2cccc3c2ccc(=O)n3C)c2cccc(F)c2O1 [Example 66]
class-name: fulfilled
//
compound: O=C1CCc2ccc(NC(=O)N[C@@H]3CC(CF)(CF)Oc4c(F)cc(F)cc43)cc2N1 [Example 214]
class-name: fulfilled
//
compound: O=C(Nc1ccc2c(c1)NC(=O)N(CCO)C2)N[C@@H]1CCOc2cc(C(F)(F)F)ccc21 [Example 54]
class-name: fulfilled
//
compound: O=C(Nc1ccc2c(c1)NC(=O)N(CCO)C2)N[C@@H]1CC(CF)(CF)Oc2cc(F)ccc21 [Example 319]
class-name: not fulfilled
//
compound: O=C1CCc2ccc(NC(=O)N[C@@H]3CCOc4cc(C(F)(F)F)ccc43)cc2N1 [Example 239]
class-name: fulfilled
//
compound: C[C@@]1(C(F)F)C[C@@H](NC(=O)Nc2ccc3c(c2)NC(=O)N(CCO)C3)c2ccccc2O1 [Example 318]
class-name: fulfilled
//
compound: CN1C(=O)NCc2c(NC(=O)N[C@@H]3CC(C)(C)Oc4c(F)cccc43)cccc21 [Example 135]
class-name: fulfilled
//
compound: CN1C(=O)CCc2ccc(NC(=O)N[C@@H]3CC4(CCC4)Oc4ccc(F)cc43)cc21 [Example 269]
class-name: fulfilled
//
compound: CN1C(=O)CCc2ccc(NC(=O)N[C@@H]3CCOc4cc(C(F)(F)F)ccc43)cc21 [Example 37]
class-name: fulfilled
//
compound: O=C(Nc1ccc2c(c1)NC(=O)N(CCO)C2)N[C@@H]1CCc2cc(F)ccc21 [Example 55]
class-name: not fulfilled
//
compound: O=C1COc2ccc(NC(=O)NCC3CCc4ccc(C(F)(F)F)cc4O3)cc2N1 (stereo not shown) [Example 132]
class-name: not fulfilled
//
compound: CCC1(CC)C[C@@H](NC(=O)Nc2cccc3c2ccc(=O)n3C)c2ccc(OC(F)(F)F)cc2O1 [Example 76]
class-name: fulfilled
//
compound: O=C(Nc1ccc2c(c1)NC(=O)N(CCO)C2)N[C@@H]1CCOc2c1cccc2C(F)(F)F [Example 53]
class-name: not fulfilled
//
compound: CC1(C)C[C@@H](NC(=O)Nc2ccc3c(c2)NC(=O)CO3)c2ccc(Cl)c(F)c2O1 [Example 325]
class-name: fulfilled
//
compound: Cn1c(=O)ccc2c(NC(=O)N[C@@H]3CC(CF)(CF)Oc4cc(C(F)(F)F)ccc43)cccc21 [Example 92]
class-name: fulfilled
//
compound: CCCC1(CCC)C[C@@H](NC(=O)Nc2cccc3c2CNC(=O)N3C)c2cc(F)ccc2O1 [Example 151]
class-name: fulfilled
//
compound: CN1Cc2ccc(NC(=O)N[C@@H]3CC(C)(C)Oc4c3cccc4C(F)(F)F)cc2NC1=O [Example 16]
class-name: fulfilled
//
compound: CN1C(=O)NCc2c(NC(=O)NC3COc4cc(Cl)ccc4C3)cccc21 (stereo not shown) [Example 161]
class-name: fulfilled
//
compound: CN1Cc2ccc(NC(=O)N[C@H]3CCOc4cc(OC(F)(F)F)ccc43)cc2NC1=O [Example 194]
class-name: not fulfilled
//
compound: O=C(Nc1ccc2c(c1)NC(=O)N(CCO)C2)N[C@@H]1CC2(CCCC2)Oc2ccccc21 [Example 317]
class-name: fulfilled
//
compound: CCC1(CC)C[C@@H](NC(=O)Nc2ccc3c(c2)N(C)C(=O)CC3)c2ccc(Cl)c(Cl)c2O1 [Example 264]
class-name: fulfilled
//
compound: CCC1(CC)C[C@@H](NC(=O)Nc2ccc3c(c2)NC(=O)CO3)c2cc(F)ccc2O1 [Example 109]
class-name: fulfilled
//
compound: O=C1CCc2ccc(NC(=O)N[C@@H]3CCOc4cc(OC(F)(F)F)ccc43)cc2N1 [Example 236]
class-name: fulfilled
